Target: furin, P09958;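 also: purified furin at 1:10 enzyme:substrate in 50 mM HEPES pH 7.5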
Sequence (P09958 whole entry): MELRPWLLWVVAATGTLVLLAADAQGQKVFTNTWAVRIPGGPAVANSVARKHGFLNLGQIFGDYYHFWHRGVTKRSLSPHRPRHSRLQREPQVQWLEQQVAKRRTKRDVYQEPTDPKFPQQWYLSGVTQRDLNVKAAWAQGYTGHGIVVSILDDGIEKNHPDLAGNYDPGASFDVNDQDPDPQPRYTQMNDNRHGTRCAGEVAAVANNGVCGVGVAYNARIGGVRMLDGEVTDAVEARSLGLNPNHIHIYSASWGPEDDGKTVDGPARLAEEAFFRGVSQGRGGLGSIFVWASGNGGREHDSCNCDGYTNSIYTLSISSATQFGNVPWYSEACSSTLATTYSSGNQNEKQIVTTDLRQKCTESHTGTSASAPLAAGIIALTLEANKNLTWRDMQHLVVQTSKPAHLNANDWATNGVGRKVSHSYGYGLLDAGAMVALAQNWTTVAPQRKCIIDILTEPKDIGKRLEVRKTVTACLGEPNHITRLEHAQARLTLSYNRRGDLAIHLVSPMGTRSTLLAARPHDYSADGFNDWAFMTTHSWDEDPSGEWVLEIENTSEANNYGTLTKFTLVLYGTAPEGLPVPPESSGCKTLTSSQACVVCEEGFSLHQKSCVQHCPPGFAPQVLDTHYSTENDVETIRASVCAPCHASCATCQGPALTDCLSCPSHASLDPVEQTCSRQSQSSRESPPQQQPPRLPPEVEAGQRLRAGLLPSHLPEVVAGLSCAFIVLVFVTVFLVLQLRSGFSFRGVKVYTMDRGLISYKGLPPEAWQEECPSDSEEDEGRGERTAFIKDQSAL
Experiment: furin cleavage Z-score vs untreated control; higher = more cleavage, active = 3.5 or more, inactive = 1 or less, 8 variable residues between constant flanks
Details: 15 min
The other results are listed elsewhere or left out. The hit rate among all sequences tested is not known here.
Hi there, use one of these labels in your reply, thanks! label 1 = active, label 0 = inactive

* CAVLTRSRRDAGNASASA [FS-573] | label 1
* CADDDKIVGGAGNASASA [EK7] | label 0
* CATTPCSKSWAGNASASA [HC1894] | label 0

Ask: Look up the recorded call for CAQPSSSRRDAGNASASA [FS-1251] in this test.
Result: label 0
